Target: T1, human Trop2 on cells (human, UniProt P09758 27-323)
T1 construct: whole, on cells; also called hTrop2; 293T-human Trop2 cells
T1 sequence (looked up): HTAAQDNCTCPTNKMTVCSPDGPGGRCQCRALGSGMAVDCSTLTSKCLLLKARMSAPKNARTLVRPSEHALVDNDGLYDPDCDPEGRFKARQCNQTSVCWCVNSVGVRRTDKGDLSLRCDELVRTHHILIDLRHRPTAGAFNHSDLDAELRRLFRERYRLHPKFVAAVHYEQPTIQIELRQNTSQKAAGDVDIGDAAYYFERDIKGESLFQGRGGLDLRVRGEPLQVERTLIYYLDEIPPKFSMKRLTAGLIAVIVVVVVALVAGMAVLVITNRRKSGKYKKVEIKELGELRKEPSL
Assay: flow cytometry on 293T-human Trop2 cells
Task for the reader: assign each of the following binders its reported Top %.
# number only, unit % dropped from output

# input Reported Top % for PR001166 (antibody, human IgG1, kappa, V domains shown, fully human IgG1/kappa; also called antibody No. (27)) VH: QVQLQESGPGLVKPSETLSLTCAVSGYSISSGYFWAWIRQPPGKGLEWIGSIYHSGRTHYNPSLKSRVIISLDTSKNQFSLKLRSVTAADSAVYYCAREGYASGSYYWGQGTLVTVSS VL: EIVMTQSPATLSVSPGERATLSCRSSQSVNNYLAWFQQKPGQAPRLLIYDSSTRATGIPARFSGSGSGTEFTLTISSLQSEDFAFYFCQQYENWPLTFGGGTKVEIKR : what is it?
# output 109

# input I'd like to know its Top %. The binder in question is PR001143 (antibody, human IgG1, kappa, V domains shown, fully human IgG1/kappa; also called antibody No. (10)) VH: QVQLVESGGGVVQPGRSLRVSCAASGFIFSTYGMHWVRQAPGKGLEWVAVIWYDGSNEDYVDSVKGRFTISRDNSKNTLYLQMNSLRGEDTAVYYCARGGYNSGWWAFDVWGQGTLVTVSS VL: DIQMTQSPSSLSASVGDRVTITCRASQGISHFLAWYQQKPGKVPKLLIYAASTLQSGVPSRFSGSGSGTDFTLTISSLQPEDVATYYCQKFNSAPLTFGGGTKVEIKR
# output 97.2
